Assay: Cmax in Sprague-Dawley rat at 20 mg/kg, ip by LC-MS/MS analysis
Assay type: ADME, organism-based
Design: dose 20 mg/kg, route intraperitoneal
Conditions: in vivo
READOUT_LABEL: Cmax (ng/mL)
Unit ng/mL implied. Number only.

Query block: Request the reported Cmax associated with `Cc1c(-c2c3c(N)n[nH]c(=O)c3nn2-c2ccc(NC(=O)/C=C/CN(C)C)cc2)oc2ccc(Cl)cc12`
Result block: 5040

* * *

Recorded AUC(0-t) by entry
Test: AUC (0 to t) in Sprague-Dawley rat at 10 mg/kg, iv by LC-MS/MS analysis
Assay type: ADME, organism-based
Conditions: in vivo
A number alone suffices; assume ng·h/mL.

>>> print(df.to_string())
                            compound_string  readout_label  test_value
0  C=CC(=O)Nc1ccc(-n2nc3c(=O)[nH]nc(N)c3c2-c2oc3ccc(C)cc3c2C)cc1       AUC(0-t)        1090

Please examine the following record next.
Query block: State the recorded AUC(0-t) for this entry: `Cc1c(-c2c3c(N)n[nH]c(=O)c3nn2-c2ccc(NC(=O)/C=C/CN(C)C)cc2)oc2ccc(Cl)cc12`
Result block: 4310

* * *

Experiment: Tmax in Sprague-Dawley rat at 10 mg/kg, iv by LC-MS/MS analysis
Type: ADME, organism-based
Conditions: in vivo
READOUT_LABEL: Tmax
Report field: quantity (unit follows the number).

Query block: Tmax for `C=CC(=O)Nc1ccc(-n2nc3c(=O)[nH]nc(N)c3c2-c2oc3ccc(C)cc3c2C)cc1` ?
Result block: 4.98 min

* * *

Reported MRT by item:
Experiment: MRT in Sprague-Dawley rat at 20 mg/kg, po by LC-MS/MS analysis
Type: ADME, organism-based
Details: in vivo
Lab note: write values as number then unit, every time.

In [3]: df
Out[3]:
                            compound_string  readout_label  test_value
0  Cc1c(-c2c3c(N)n[nH]c(=O)c3nn2-c2ccc(NC(=O)/C=C/CN(C)C)cc2)oc2ccc(Cl)cc12            MRT      7.33 h

Now look at this entry.
Query block: What measured MRT goes with `C=CC(=O)Nc1ccc(-n2nc3c(=O)[nH]nc(N)c3c2-c2oc3ccc(C)cc3c2C)cc1` ?
Result block: 2.17 h

* * *

Experiment: Stability in rat blood assessed as parent compound remaining at 5 uM measured after 5 hrs by LC-MS/MS analysis
Type: ADME, tissue-based
Details: read-out: Stability
READOUT_LABEL: remaining at 5 h, 5 µM (%)
Quick note: give the figure in %, leave out the unit.

Query block: remaining at 5 h, 5 µM for `Cc1c(-c2c3c(N)n[nH]c(=O)c3nn2-c2ccc(NC(=O)/C=C/CN(C)C)cc2)oc2ccc(Cl)cc12` ?
Result block: 20

* * *

Assay: Half life in Sprague-Dawley rat at 20 mg/kg, ip by LC-MS/MS analysis
Type: ADME, organism-based
Conditions: in vivo
READOUT_LABEL: half-life

Query block: So what's the measured half-life for this one? `Cc1c(-c2c3c(N)n[nH]c(=O)c3nn2-c2ccc(NC(=O)/C=C/CN(C)C)cc2)oc2ccc(Cl)cc12`
Result block: 4.63 h

* * *

Experiment: Kinetic solubility of the compound in pH 7.4 PBS by nephelometric method
Type: physicochemical
Details: read-out: Kinetic_solubility
Listed here are compounds together with their documented solubility kinetic.
Hi! Could you send only the number? It should be in µM, unit omitted.

# example entries with known answers
In [3]: df
Out[3]:
                            compound_string  readout_units  test_value
0  Cc1ccc2oc(-c3c4c(N)n[nH]c(=O)c4nn3-c3ccc(NC(=O)/C=C/CN(C)C)cc3)c(C)c2c1             µM          50
1                           CC(=O)c1ccccc1O             µM          50
2  C=CC(=O)Nc1ccc(-n2nc3c(=O)[nH]nc(N)c3c2-c2oc3ccc(Cl)cc3c2C)cc1             µM          20

Query block: Query: solubility kinetic; subject: `Cc1c(-c2c3c(N)n[nH]c(=O)c3nn2-c2ccc(NC(=O)/C=C/CN(C)C)cc2)oc2ccc(Br)cc12`
Result block: 50

* * *

Test: AUC (0 to infinity) in Sprague-Dawley rat at 20 mg/kg, ip by LC-MS/MS analysis
Format: ADME, organism-based
Parameters: dose 20 mg/kg, time infinity, route intraperitoneal
Conditions: in vivo
READOUT_LABEL: AUC(0-inf) (ng·h/mL)
Please give a number only; it is taken to be in ng·h/mL.

Query block: AUC(0-inf) for `Cc1c(-c2c3c(N)n[nH]c(=O)c3nn2-c2ccc(NC(=O)/C=C/CN(C)C)cc2)oc2ccc(Cl)cc12` ?
Result block: 17000

* * *

Assay: AUC (0 to infinity) in Sprague-Dawley rat at 10 mg/kg, iv by LC-MS/MS analysis
Type: ADME, organism-based
Set-up: dose 10 mg/kg, time infinity, route intravenous
Settings: in vivo
Catalogue of AUC(0-inf) values
Write the answer as a number in ng·h/mL, unit excluded.

                            compound_string  test_value
0  Cc1c(-c2c3c(N)n[nH]c(=O)c3nn2-c2ccc(NC(=O)/C=C/CN(C)C)cc2)oc2ccc(Cl)cc12        4410

API: the following record is the query input.
Query block: Need AUC(0-inf), item `C=CC(=O)Nc1ccc(-n2nc3c(=O)[nH]nc(N)c3c2-c2oc3ccc(C)cc3c2C)cc1`
Result block: 1270

* * *

Recorded bioavailability by entry
Assay: Oral bioavailability in Sprague-Dawley rat at 20 mg/kg by LC-MS/MS analysis
Type: ADME, organism-based
Details: in vivo
Please give a number only; it is taken to be in %.

>>> df
                            compound_string  test_value
0  C=CC(=O)Nc1ccc(-n2nc3c(=O)[nH]nc(N)c3c2-c2oc3ccc(C)cc3c2C)cc1        0.29

We next turn to a different compound, shown below.
Query block: // query bioavailability value for entry `Cc1c(-c2c3c(N)n[nH]c(=O)c3nn2-c2ccc(NC(=O)/C=C/CN(C)C)cc2)oc2ccc(Cl)cc12`
Result block: 0

* * *

Test: Half life in mouse liver microsomes at 0.1 uM in presence of NADPH by LC-MS/MS analysis
Assay type: ADME, Microsome
Conditions: liver microsomes
Below, each of the compounds is paired with its reported half-life at 0.1 µM value.
Report the figure in min without appending any unit label.

Below: 2 compounds and their reported half-life at 0.1 µM.
>>> print(df.to_string())
                            compound_string  test_value
0  C=CC(=O)Nc1ccc(-n2nc3c(=O)[nH]nc(N)c3c2-c2oc3ccc(Cl)cc3c2C)cc1          29
1  C=CC(=O)Nc1ccc(-n2nc3c(=O)[nH]nc(N)c3c2-c2oc3ccc(C)cc3c2C)cc1          31

Attention now turns to another entry.
Query block: Suppose we examine the compound `Cc1ccc2oc(-c3c4c(N)n[nH]c(=O)c4nn3-c3ccc(NC(=O)/C=C/CN(C)C)cc3)c(C)c2c1` ; what half-life at 0.1 µM value has been reported?
Result block: 63

* * *

Experiment: Cmax in Sprague-Dawley rat at 20 mg/kg, po by LC-MS/MS analysis
Type: ADME, organism-based
Design: dose 20 mg/kg, route oral
Conditions: in vivo
Overview of recorded Cmax for various compounds
Just the number please, in ng/mL, no unit attached.

                            compound_string  readout_label  test_value
0  Cc1c(-c2c3c(N)n[nH]c(=O)c3nn2-c2ccc(NC(=O)/C=C/CN(C)C)cc2)oc2ccc(Cl)cc12           Cmax         7.3

Consider the additional compound presented here.
Query block: Which Cmax value is on record for `C=CC(=O)Nc1ccc(-n2nc3c(=O)[nH]nc(N)c3c2-c2oc3ccc(C)cc3c2C)cc1` ?
Result block: 12.9

* * *

Assay: Cmax in Sprague-Dawley rat at 10 mg/kg, iv by LC-MS/MS analysis
Format: ADME, organism-based
Design: dose 10 mg/kg, route intravenous
Conditions: in vivo
READOUT_LABEL: Cmax (ng/mL)
Field format: number, assumed ng/mL, no unit text.

Query block: Param item = `C=CC(=O)Nc1ccc(-n2nc3c(=O)[nH]nc(N)c3c2-c2oc3ccc(C)cc3c2C)cc1` ; retrieve measured Cmax.
Result block: 1880

* * *

Assay: Tmax in Sprague-Dawley rat at 20 mg/kg, po by LC-MS/MS analysis
Type: ADME, organism-based
Details: in vivo
READOUT_LABEL: Tmax (min)
Report the value in min with no unit label.

>>> df
                            compound_string  test_value
0  C=CC(=O)Nc1ccc(-n2nc3c(=O)[nH]nc(N)c3c2-c2oc3ccc(C)cc3c2C)cc1        51.7

Query block: Form field: reported Tmax of `Cc1c(-c2c3c(N)n[nH]c(=O)c3nn2-c2ccc(NC(=O)/C=C/CN(C)C)cc2)oc2ccc(Cl)cc12`
Result block: 30
